assaySystem: UP1+RGG (UniProt P09651-2 1-249)
Sequence (P09651 1-249): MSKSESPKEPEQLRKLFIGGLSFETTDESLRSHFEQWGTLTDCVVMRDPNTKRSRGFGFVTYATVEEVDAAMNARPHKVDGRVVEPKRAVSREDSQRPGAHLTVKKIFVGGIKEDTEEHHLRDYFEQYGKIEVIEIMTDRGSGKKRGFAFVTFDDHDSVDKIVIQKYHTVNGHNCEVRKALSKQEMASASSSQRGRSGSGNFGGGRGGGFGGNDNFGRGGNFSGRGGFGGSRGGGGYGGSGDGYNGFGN
assay: ITC; 100 mM KCl; ITC/CD: 20 mM Tris-Cl pH 8, 100 mM NaCl or KCl, 25 C; NMR: 10 mM sodium or potassium phosphate pH 6.5, 100 mM NaCl or KCl, 298 K
experimentalConditions: protein: recombinant; tags: C-terminal 6xHis (pET28a); chain copies: 2; intramolecular G4 (monomeric)
testReadout: Kd (µM)

INSERT INTO results (binder, testreadout, numericvalue) VALUES
  ('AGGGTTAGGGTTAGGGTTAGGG (structured_DNA) [Tel22 G-quadruplex]', 'Kd', 4.85);
